# measured-target: MST4 (human) (UniProt Q9P289)
# Sequence (Q9P289 whole entry, looked up): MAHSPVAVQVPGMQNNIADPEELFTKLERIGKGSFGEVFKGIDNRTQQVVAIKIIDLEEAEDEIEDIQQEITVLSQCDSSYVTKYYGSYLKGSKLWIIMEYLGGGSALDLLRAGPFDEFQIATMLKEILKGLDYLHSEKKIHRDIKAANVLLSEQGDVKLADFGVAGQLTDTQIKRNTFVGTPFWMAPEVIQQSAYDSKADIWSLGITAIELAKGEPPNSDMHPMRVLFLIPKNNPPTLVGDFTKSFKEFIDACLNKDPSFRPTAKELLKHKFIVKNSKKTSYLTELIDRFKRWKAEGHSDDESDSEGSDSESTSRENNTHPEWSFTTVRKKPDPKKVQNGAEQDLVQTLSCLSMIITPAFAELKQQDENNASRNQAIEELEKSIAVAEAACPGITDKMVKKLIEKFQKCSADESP
# assay-info: radiometric filter-binding kinase assay, Kinase HotSpot
# settings: compound 0.5 µM; ATP 10 µM
Tag: 1 if measured residual activity is not below 90%, 0 if it is.

Ask: # bool: residual activity of `CN(C)CCCn1cc(C2=C(c3c[nH]c4ccccc34)C(=O)NC2=O)c2ccccc21` >= 90%
Result: 0

Ask: Please answer likewise for `COc1ccc(C(=O)Nc2sc3c(c2C(N)=O)CCCC3)cc1OC`
Result: 1

Ask: Please answer likewise for `O=C1NC(=O)c2c1c1c3ccccc3[nH]c1n1cncc21`
Result: 0

Ask: Next entry: `NC(=O)c1cccc(-c2cc(Nc3ccc(OC(F)(F)F)cc3)ncn2)c1`
Result: 1

Ask: Input `C[C@@H]1CCN(C(=O)CC#N)C[C@@H]1N(C)c1ncnc2[nH]ccc12`
Result: 1

Ask: Please answer likewise for `N#Cc1c[nH]c2c[nH]/c(=N\Cc3cccnc3)cc2/c1=N\c1ccc(F)c(Cl)c1`
Result: 1

Ask: Let us now turn to `CN(C)S(=O)(=O)c1ccc2c(c1)/C(=C/c1cc3c([nH]1)CCCC3)C(=O)N2`
Result: 0

Ask: Lookup `Cc1cccc(-c2nc(C(C)(C)C)[nH]c2-c2ccc3c(c2)OCO3)n1`
Result: 1

Ask: Then `c1ccc2c(-c3ccncc3)c[nH]c2c1` ?
Result: 1

Ask: Next molecule: `Fc1ccc(-c2nc3n(c2-c2ccncc2)CCS3)cc1`
Result: 1

Ask: `COc1ccc(S(=O)(=O)N(CCO)c2ccccc2CN(C)C/C=C/c2ccc(Cl)cc2)cc1` ?
Result: 1

Ask: Next molecule up: `Ic1cccc(CSc2nnc(-c3ccncc3)o2)c1`
Result: 1

Ask: Same for `COc1cc2ncnc(Nc3ccc(Oc4ccccc4)cc3)c2cc1OC`
Result: 1

Ask: Continue with `CCCCc1c(-c2ccc(OC)cc2)[nH]c2nccnc12`
Result: 0

Ask: How about this molecule: `O=C1C(Cl)=C(N2C(=O)CCC2=O)C(=O)c2ccccc21`
Result: 1

Ask: Query `CS(=O)(=O)CCNCc1ccc(-c2ccc3ncnc(Nc4ccc(OCc5cccc(F)c5)c(Cl)c4)c3c2)o1` next
Result: 1

Ask: Record: `CO[C@@H]1[C@H](N(C)C(=O)c2ccccc2)C[C@H]2O[C@]1(C)n1c3ccccc3c3c4c(c5c6ccccc6n2c5c31)C(=O)NC4`
Result: 0

----------
# measured-target: AURKA (human) (UniProt O14965)
# Sequence (O14965 whole entry, looked up): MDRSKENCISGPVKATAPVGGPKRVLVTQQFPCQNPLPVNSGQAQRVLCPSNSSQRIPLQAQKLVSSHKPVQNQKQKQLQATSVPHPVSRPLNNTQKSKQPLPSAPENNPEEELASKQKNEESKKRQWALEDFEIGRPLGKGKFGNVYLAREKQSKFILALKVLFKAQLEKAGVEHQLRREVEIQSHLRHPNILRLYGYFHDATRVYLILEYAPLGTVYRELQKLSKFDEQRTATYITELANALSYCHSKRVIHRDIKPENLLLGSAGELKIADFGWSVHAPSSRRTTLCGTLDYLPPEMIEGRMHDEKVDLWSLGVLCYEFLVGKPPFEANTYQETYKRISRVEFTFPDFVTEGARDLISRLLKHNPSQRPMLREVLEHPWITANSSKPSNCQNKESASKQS
# assay-info: radiometric filter-binding kinase assay, Kinase HotSpot
# settings: compound 0.5 µM; ATP 10 µM
Rule: residual activity below 80% gives 1 (yes), anything at or above gives 0 (no).

Ask: Identify whether the molecule `O=C1c2ccccc2-c2nc3nnnn3nc21` records residual activity below 80%.
Result: 1 (yes)

Ask: Moving on to the next molecule: `COc1ccc(S(=O)(=O)N(CCO)c2ccccc2CN(C)C/C=C/c2ccc(Cl)cc2)cc1`
Result: 0 (no)

Ask: Next: `N#Cc1c[nH]c2c[nH]/c(=N\Cc3cccnc3)cc2/c1=N\c1ccc(F)c(Cl)c1`
Result: 0 (no)

Ask: Record: `COc1cc(Nc2c(C#N)cnc3cc(OCCCN4CCN(C)CC4)c(OC)cc23)c(Cl)cc1Cl`
Result: 0 (no)

Ask: Quick one: `COc1ccc2c(c1)/C(=C/c1cnc[nH]1)C(O)=N2`
Result: 1 (yes)

Ask: Please do the same for `Cn1c2ccccc2c2c3c(c4c5ccccc5n(CCC#N)c4c21)CNC3=O` as well.
Result: 1 (yes)

Ask: Now try `O=C1Nc2ccc(Br)cc2/C1=C\c1cc2c([nH]1)CCCC2` .
Result: 0 (no)

Ask: Request: `Cc1nc(-c2ccccc2)c(-c2ccncc2)o1`
Result: 0 (no)

Ask: Another molecule to look at: `Cc1cccc(-c2nc(C(C)(C)C)[nH]c2-c2ccc3c(c2)OCO3)n1`
Result: 0 (no)
